# ASSAY: qHTS of pediatric cancer cell lines to identify multiple opportunities for drug repurposing: Confirmatory screen for A673 cells (AID 1347110);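 note: cells exposed to compound for 48 h before the viability read; nearly all actives have a fitted effect of over 65% in size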
# MEASUREMENT CONDITIONS: A673 Ewing sarcoma cell viability; series mostly up to 45.9 µM
Inconclusive results are not listed. Active and inactive are the calls of the source. Calls come from the whole dose curve; as a rule, active = well fitted cell-killing curve with a large enough effect; inconclusive = small, poorly fitted or top-dose-only effect; inactive = flat fitted curve, though single readings scatter. Non-standard residues stand in square brackets, D forms with d. Residues, ends and D or L forms follow the SMILES beside them. *: point of attachment. Sta = CC(C)C[C@H](N)[C@@H](O)CC(=O)O; Isovaleryl = CC(C)CC(=O)*
Outcome (select one): active, inactive

INPUT: In this assay, the call recorded for Nc1nc(OCc2ccccc2)c2[nH]cnc2n1 was what?
OUTPUT: inactive

INPUT: In this assay, the call recorded for CCCCc1ccc2nc(NC(=O)OC)[nH]c2c1 was what?
OUTPUT: active

INPUT: In this assay, the call recorded for CC(C)C[C@H](NC(=O)[C@H](Cc1ccccc1)NC(=O)c1cnccn1)B(O)O was what?
OUTPUT: active

INPUT: In this assay, the call recorded for Nc1ncn([C@H]2C[C@H](O)[C@@H](CO)O2)c(=O)n1 was what?
OUTPUT: inactive

INPUT: In this assay, the call recorded for CC(C)CC(=O)N[C@H](C(=O)N[C@H](C(=O)N[C@@H](CC(C)C)[C@@H](O)CC(=O)N[C@@H](C)C(=O)N[C@@H](CC(C)C)[C@@H](O)CC(=O)O)C(C)C)C(C)C (Isovaleryl-VV[Sta]A[Sta]-OH) was what?
OUTPUT: active

INPUT: In this assay, the call recorded for C[C@]12CCC(=O)C=C1CC[C@@H]1[C@H]2[C@@H](O)C[C@@]2(C)[C@H]1CC[C@]2(O)C(=O)CO was what?
OUTPUT: inactive

INPUT: In this assay, the call recorded for c1cnc2cc3c(cc2n1)C1CNCC3C1 was what?
OUTPUT: inactive

INPUT: In this assay, the call recorded for Cc1cc(C2CCCCC2)n(O)c(=O)c1 was what?
OUTPUT: active

INPUT: In this assay, the call recorded for Nc1nc(Cl)nc2c1ncn2[C@H]1C[C@H](O)[C@@H](CO)O1 was what?
OUTPUT: active

INPUT: In this assay, the call recorded for C=C(c1ccc(C(=O)O)cc1)c1cc2c(cc1C)C(C)(C)CCC2(C)C was what?
OUTPUT: inactive

---

# ASSAY: Quantitative High-Throughput drug screen in 47 multiple myeloma cell lines against the NCATS MIPE library collection: INA6_PLB cell viability assay (AID 1918965; note: nearly all actives have a fitted effect of over 55% in size; note: potency is the fitted concentration of half-maximal effect)
# MEASUREMENT CONDITIONS: INA6 myeloma viability, CellTiter-Glo ATP luminescence, 48 h; series mostly up to 45.8 µM
Results filed as inconclusive are left out. Active and inactive are the calls of the source. The call rests on the fitted dose curve; in most records, active means well fitted cell-killing curve with a large enough effect; inconclusive means small, poorly fitted or top-dose-only effect, or effect the other way; inactive means no such curve, though single readings can be large or run the other way.
PROPERTY NAME: Potency

{"columns": ["MOLECULE", "Potency"],
 "data": [
  ["COC1=C(OC)C(=O)C(CCCCCCCCCCO)=C(C)C1=O", "18.7 µM (active)"],
  ["NC(=NCc1ccccc1)NC(=O)c1nc(Cl)c(N)nc1N", "9.35 µM (active)"],
  ["CN(C)c1ccc2nc3ccc(=[N+](C)C)cc-3sc2c1", "1.48 µM (active)"],
  ["Cc1cc(O)c2c(c1)C(=O)c1cc(O)cc(O)c1C2=O", "inactive"],
  ["CN(c1nccc(=O)[nH]1)C1CCN(c2nc3ccccc3n2Cc2ccc(F)cc2)CC1", "23.5 µM (active)"]
]}

Memo: Clc1ccc(C(Cn2ccnc2)OCc2ccsc2Cl)c(Cl)c1 (stereo not drawn) , reported Potency: 26.4 µM (active)

Memo: CC1=C(C(=O)O)N2C(=O)[C@@H](NC(=O)[C@H](N)C3=CCC=CC3)[C@H]2SC1 , reported Potency: inactive

Memo: Cc1cccc(C#Cc2ccccc2)n1 , reported Potency: 13.2 µM (active)

Memo: Cc1nc2n(c(=O)c1CCN1CCC(c3noc4cc(F)ccc34)CC1)CCCC2 , reported Potency: inactive

Memo: Clc1ccc(C(Cn2ccnc2)OCc2c(Cl)cccc2Cl)c(Cl)c1 (stereo not drawn) , reported Potency: 29.6 µM (active)

Memo: CN(C)CCc1c[nH]c2ccc(Cn3cncn3)cc12 , reported Potency: 1.66 µM (active)

---

# Test system: PA-1
# ASSAY: Primary qHTS to identify gynecologic anti-cancer compounds using libraries of approved drugs and bioactive compounds (AID 1345084); note: nearly all actives have a fitted effect of over 55% in size
# MEASUREMENT CONDITIONS: Gynecologic cancer cell panel viability, ATPlite luminescence, 48 h; series mostly up to 57.5 µM
Inconclusive results are not listed. Activity calls are given as the source filed them. Calls come from the whole dose curve; as a rule, active = well fitted cell-killing curve with a large enough effect; inconclusive = small, poorly fitted or top-dose-only effect, or effect the other way; inactive = flat fitted curve, though single readings scatter.
Outcome (select one): 1 (yes) = active, 0 (no) = inactive

INPUT: In this assay, the call recorded for N[C@@H](Cc1cc(I)c(Oc2cc(I)c(O)c(I)c2)c(I)c1)C(=O)O was what?
OUTPUT: 0 (no)

INPUT: In this assay, the call recorded for O=C(O)c1cc(=O)c2c(OCC(O)COc3cccc4oc(C(=O)O)cc(=O)c34)cccc2o1 was what?
OUTPUT: 0 (no)

INPUT: In this assay, the call recorded for CCCCN(CCCC)CCC(O)c1cc2c(Cl)cc(Cl)cc2c2cc(C(F)(F)F)ccc12 (stereo unspecified) was what?
OUTPUT: 0 (no)

INPUT: In this assay, the call recorded for S=c1nc[nH]c2nc[nH]c12 was what?
OUTPUT: 1 (yes)

INPUT: In this assay, the call recorded for Cc1ncc([N+](=O)[O-])n1CC(C)O (stereo unspecified) was what?
OUTPUT: 0 (no)

INPUT: In this assay, the call recorded for CC1Cc2ccccc2N1NC(=O)c1ccc(Cl)c(S(N)(=O)=O)c1 (stereo unspecified) was what?
OUTPUT: 0 (no)

---

# ASSAY: qHTS profiling for inhibitors of Plasmodium falciparum proliferation (AID 504749);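 note: 0% = DMSO vehicle and full inhibition = artemisinin control; nearly all actives have a fitted effect of over 60% in size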
# MEASUREMENT CONDITIONS: P. falciparum in erythrocytes, SYBR Green DNA, 72 h; at 28.7 µM (top of the series); parasite line B
Records with an inconclusive call do not appear.
Task for the reader: assign each of the following compounds its reported activity, negative = inhibition.
Value expressed in %; do not type the unit.

Memo: O=C(O)c1cccc(-c2noc(-c3ccccc3F)n2)c1 , reported activity, negative = inhibition: 10.4

Memo: CN(C)C(=O)COC(=O)Cc1ccc(OC(=O)c2ccc(N=C(N)N)cc2)cc1 , reported activity, negative = inhibition: 4.45

Memo: Cc1nc2n(c(=O)c1CCN1CCC(c3noc4cc(F)ccc34)CC1)CCCC2 , reported activity, negative = inhibition: 15.8

Memo: O=C(O)c1cccnc1Nc1cccc(C(F)(F)F)c1 , reported activity, negative = inhibition: 13.5

Memo: CCC(C)(Oc1ccc(C2(c3ccc(OC(C)(CC)C(=O)O)cc3)CCCCC2)cc1)C(=O)O (stereo unspecified) , reported activity, negative = inhibition: -9.49

Memo: C[C@H](Cn1cnc2c(N)ncnc21)OCP(=O)(O)O , reported activity, negative = inhibition: 3.87

Memo: CCCOc1ccc2nc(NC(=O)OC)[nH]c2c1 , reported activity, negative = inhibition: 13.5

Memo: Cc1ccc(C)c(OCCCC(C)(C)C(=O)O)c1 , reported activity, negative = inhibition: 9.1

Memo: CC(C)(S)[C@@H](N)C(=O)O , reported activity, negative = inhibition: -13.2

Memo: C[C@]12CCC(=O)C=C1CC[C@@H]1[C@H]2[C@@H](O)C[C@@]2(C)[C@H]1CC[C@]2(O)C(=O)CO , reported activity, negative = inhibition: 19.1

Memo: CN(c1nccc(=O)[nH]1)C1CCN(c2nc3ccccc3n2Cc2ccc(F)cc2)CC1 , reported activity, negative = inhibition: -10.5

---

# STUDY TARGET: M-phase phosphoprotein 8 (Homo sapiens) (UniProt Q99549)
# Sequence (Q99549 whole entry, looked up): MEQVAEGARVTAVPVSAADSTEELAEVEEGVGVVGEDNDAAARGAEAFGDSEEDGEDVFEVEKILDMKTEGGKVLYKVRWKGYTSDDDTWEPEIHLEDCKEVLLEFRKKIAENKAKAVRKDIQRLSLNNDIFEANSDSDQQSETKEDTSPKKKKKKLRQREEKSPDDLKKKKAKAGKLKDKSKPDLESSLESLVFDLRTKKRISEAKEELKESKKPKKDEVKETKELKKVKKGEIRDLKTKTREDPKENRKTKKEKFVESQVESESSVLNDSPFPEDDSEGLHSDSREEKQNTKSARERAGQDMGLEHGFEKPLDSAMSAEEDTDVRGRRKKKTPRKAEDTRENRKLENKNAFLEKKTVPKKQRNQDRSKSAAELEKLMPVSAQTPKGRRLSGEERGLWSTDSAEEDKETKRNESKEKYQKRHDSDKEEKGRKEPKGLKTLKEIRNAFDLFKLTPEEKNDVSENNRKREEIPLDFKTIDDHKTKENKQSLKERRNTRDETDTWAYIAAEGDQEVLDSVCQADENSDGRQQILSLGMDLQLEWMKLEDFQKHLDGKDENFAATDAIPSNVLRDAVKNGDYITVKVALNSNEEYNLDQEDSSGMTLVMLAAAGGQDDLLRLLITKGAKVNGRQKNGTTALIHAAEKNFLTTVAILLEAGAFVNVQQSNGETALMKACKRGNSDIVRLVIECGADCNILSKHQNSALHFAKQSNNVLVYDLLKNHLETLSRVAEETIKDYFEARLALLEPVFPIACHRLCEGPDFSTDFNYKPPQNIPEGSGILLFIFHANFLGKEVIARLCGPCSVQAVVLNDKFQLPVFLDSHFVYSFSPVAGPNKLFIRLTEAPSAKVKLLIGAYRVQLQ
# ASSAY: qHTS Validation Assay for Inhibitors for MPP8 Chromodomain Interactions with Methylated Histone Tails (AID 488949); note: nearly all actives have a fitted effect of over 55% in size
# MEASUREMENT CONDITIONS: AlphaScreen MPP8 binding to H3K9me3 peptide; series mostly up to 57.1 µM
# Description: As our understanding of epigenetics expands, it is becoming clear that players in this field are potential targets for drug development. […] Low-affinity protein-protein interactions (Kd in the single- to double-digit micromolar range) such as those discussed here have been very difficult to assay by traditional techniques such as fluorescence polarization or fluorescence resonance energy transfer. […]
Results filed as inconclusive are left out. Active and inactive are the calls of the source. Calls follow the shape of the dose curve; as a rule, active = well fitted inhibition curve with a large enough effect; inconclusive = small, poorly fitted or top-dose-only effect; inactive = no such curve, though single readings can be large or run the other way.
Outcome (select one): 1 = active, 0 = inactive

INPUT: In this assay, the call recorded for O=C(CCc1ccc(O)cc1)c1c(O)cc(O)cc1O was what?
OUTPUT: 0

INPUT: In this assay, the call recorded for CNC[C@H](O)c1ccc(O)c(O)c1 was what?
OUTPUT: 0

INPUT: In this assay, the call recorded for Nc1nc(OCc2ccccc2)c2[nH]cnc2n1 was what?
OUTPUT: 0

INPUT: In this assay, the call recorded for CC1(C)C(=O)N(CCN2CCC(C(=O)c3ccc(F)cc3)CC2)c2ccccc21 was what?
OUTPUT: 0

INPUT: In this assay, the call recorded for Nc1nc(N)c(N=O)c(OCC2CCCCC2)n1 was what?
OUTPUT: 0

INPUT: In this assay, the call recorded for O=C1NC(=O)C(c2ccccc2[N+](=O)[O-])=C1Nc1ccc(O)c(Cl)c1 was what?
OUTPUT: 1

INPUT: In this assay, the call recorded for O=c1cc(N2CCOCC2)oc2c(-c3ccccc3)cccc12 was what?
OUTPUT: 0

INPUT: In this assay, the call recorded for CC1(C)NC(=O)N(c2ccc([N+](=O)[O-])c(C(F)(F)F)c2)C1=O was what?
OUTPUT: 0

INPUT: In this assay, the call recorded for CC(=O)O[C@H]1C(=O)[C@@]2(C)C([C@H](OC(=O)c3ccccc3)[C@]3(O)C[C@H](OC(=O)[C@H](O)[C@@H](NC(=O)c4ccccc4)c4ccccc4)C(C)=C1C3(C)C)[C@]1(OC(C)=O)CO[C@@H]1C[C@@H]2O (stereo not given in full) was what?
OUTPUT: 0

INPUT: In this assay, the call recorded for O=C(NCC1CCCCN1)c1cc(OCC(F)(F)F)ccc1OCC(F)(F)F (stereo not given) was what?
OUTPUT: 0
